# Protocol Summary: Comparative tests for stability of the crystalline form E and other crystalline forms (storage, total impurity and content)
# Format: physicochemical
# Conditions Used: Refrigerating 6° C., month 9
Measure: Total impurity (%)

Solved cases (3 shown):
{"Compound": "C[C@@H](O)[C@H]1C(=O)N2C(C(=O)[O-])=C(S[C@@H]3CN[C@H](C(=O)Nc4cccc(C(=O)O)c4)C3)[C@H](C)[C@H]12.[Na+] [Crystalline form C, ertapenem sodium]", "Value Units": "%", "Total impurity": 1.9}
{"Compound": "C[C@@H](O)[C@H]1C(=O)N2C(C(=O)[O-])=C(S[C@@H]3CN[C@H](C(=O)Nc4cccc(C(=O)O)c4)C3)[C@H](C)[C@H]12.[Na+] (relative stereo) [Crystalline form E]", "Value Units": "%", "Total impurity": 2.1}
{"Compound": "C[C@@H](O)[C@H]1C(=O)N2C(C(=O)[O-])=C(S[C@@H]3CN[C@H](C(=O)Nc4cccc(C(=O)O)c4)C3)[C@H](C)[C@H]12.[Na+] [Crystalline form A, ertapenem sodium]", "Value Units": "%", "Total impurity": 2.0}

(A) C[C@@H](O)[C@H]1C(=O)N2C(C(=O)[O-])=C(S[C@@H]3CN[C@H](C(=O)Nc4cccc(C(=O)O)c4)C3)[C@H](C)[C@H]12.[Na+] [Crystalline form B, ertapenem sodium]
(B) C[C@@H](O)[C@H]1C(=O)N2C(C(=O)[O-])=C(S[C@@H]3CN[C@H](C(=O)Nc4cccc(C(=O)O)c4)C3)[C@H](C)[C@H]12.[Na+] [Amorphous, ertapenem sodium]
(C) C[C@@H](O)[C@H]1C(=O)N2C(C(=O)[O-])=C(S[C@@H]3CN[C@H](C(=O)Nc4cccc(C(=O)O)c4)C3)[C@H](C)[C@H]12.[Na+] [Crystalline form D, ertapenem sodium]
Request: Rank items: key Total impurity, increasing. Answer with the labels in sequence, matching the requested order.
Response: A, C, B
